Some molecules, each annotated with its measured pIC50.
# System: CCRF-CEM
# PROTOCOL_NOTES: Antiproliferative activity against human CCRF-CEM cells assessed as inhibition of cell viability after 72 hrs by CCK-8 assay
# Assay type: functional, cell-based
pIC50: −log10 of the molar value.

MOLECULE: C[S+]([O-])CCCCN=C=S (stereo not drawn)
pIC50: < 5.00
--
MOLECULE: CN(C)C(=O)c1cc2cnc(Nc3ccc(N4CCNCC4)cn3)nc2n1C1CCCC1
pIC50: < 5.00
--
MOLECULE: CN(C)C(=O)c1cc2cnc(Nc3ccc(NC(=O)CCCCCCCN=C=S)cc3)nc2n1C1CCCC1
pIC50: < 5.00

* * *

# ASSAYED_SYSTEM: CDK6/cyclin D3 (Homo sapiens)
# Sequence (P30281 whole entry): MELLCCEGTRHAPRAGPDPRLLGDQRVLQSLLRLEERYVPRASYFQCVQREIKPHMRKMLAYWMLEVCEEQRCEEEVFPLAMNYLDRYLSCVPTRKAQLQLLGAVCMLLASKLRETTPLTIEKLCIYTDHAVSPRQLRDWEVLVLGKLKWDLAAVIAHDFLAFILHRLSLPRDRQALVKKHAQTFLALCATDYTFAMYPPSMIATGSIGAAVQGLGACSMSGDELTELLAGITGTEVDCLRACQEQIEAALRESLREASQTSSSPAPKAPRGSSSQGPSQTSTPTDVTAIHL
# Sequence (Q00534 whole entry): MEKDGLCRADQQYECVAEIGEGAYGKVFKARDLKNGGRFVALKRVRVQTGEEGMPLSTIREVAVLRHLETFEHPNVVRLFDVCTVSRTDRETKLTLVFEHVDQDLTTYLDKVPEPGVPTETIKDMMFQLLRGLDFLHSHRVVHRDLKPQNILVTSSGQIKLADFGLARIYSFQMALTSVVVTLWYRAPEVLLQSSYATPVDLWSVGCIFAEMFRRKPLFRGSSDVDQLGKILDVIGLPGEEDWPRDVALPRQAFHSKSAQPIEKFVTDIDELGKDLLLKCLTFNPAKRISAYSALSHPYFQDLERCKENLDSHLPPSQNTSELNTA
# PROTOCOL_NOTES: Inhibition of recombinant full-length human CDK6/cyclinD3 using histone H1 as substrate measured after 40 mins in presence of [gamma33P]ATP by scintillation counting method
pIC50: −log10 of the molar value.

MOL_SMILES: CN(C)C(=O)c1cc2cnc(Nc3ccc(NC(=O)CCCCCCCN=C=S)cc3)nc2n1C1CCCC1
ASSAYED_SYSTEM: CDK6/cyclin D3 (Homo sapiens)
pIC50: 6.84

* * *

# ASSAYED_SYSTEM: CDK4/Cyclin D3 (Homo sapiens) (UniProt P11802+P30281)
# PROTOCOL_NOTES: Inhibition of recombinant full-length human CDK4/cyclinD3 at 1 uM using Rb fragment as substrate measured after 40 mins in presence of [gamma33P]ATP by scintillation counting method relative to control
# Assay type: protein-complex assay
Please note: satisfied applies when inhibition is 90% or greater, and not satisfied applies otherwise.

MOL_SMILES: CN(C)C(=O)c1cc2cnc(Nc3ccc(C(=O)NCCCCCCCN=C=S)cc3)nc2n1C1CCCC1
CLASS: not satisfied
--
MOL_SMILES: CN(C)C(=O)c1cc2cnc(Nc3ccc(C(=O)NCCCCCCCN=C=S)cn3)nc2n1C1CCCC1
CLASS: not satisfied
--
MOL_SMILES: CN(C)C(=O)c1cc2cnc(Nc3ccc(S(=O)(=O)NCCCCCCCN=C=S)cc3)nc2n1C1CCCC1
CLASS: not satisfied
--
MOL_SMILES: CN(C)C(=O)c1cc2cnc(Nc3ccc(NC(=O)CCCCCCN=C=S)cc3)nc2n1C1CCCC1
CLASS: satisfied
--
MOL_SMILES: CN(C)C(=O)c1cc2cnc(Nc3ccc(NC(=O)CCCCCCCN=C=S)cc3)nc2n1C1CCCC1
CLASS: not satisfied

* * *

Some compounds, each annotated with its measured inhibition at 10 µM.
# Test system: NCI-H1299
# PROTOCOL_NOTES: Antiproliferative activity against human H1299 cells assessed as inhibition of cell viability at 10 uM after 72 hrs by CCK-8 assay relative to control
# Format: functional
# CONDITION_SUMMARY: NCI-H1299, 72 h

MOL_SMILES: CN(C)C(=O)c1cc2cnc(Nc3ccc(NC(=O)CCCCCCCN=C=S)cc3F)nc2n1C1CCCC1
inhibition at 10 µM, %: 14
--
MOL_SMILES: CN(C)C(=O)c1cc2cnc(Nc3ccc(CNC(=O)CCCCCCCN=C=S)cc3)nc2n1C1CCCC1
inhibition at 10 µM, %: 91.7
--
MOL_SMILES: CN(C)C(=O)c1cc2cnc(Nc3ccc(C(=O)NCCCN=C=S)cc3O)nc2n1C1CCCC1
inhibition at 10 µM, %: 24.2
--
MOL_SMILES: CN(C)C(=O)c1cc2cnc(Nc3ccc(C(=O)NCCCCN=C=S)cc3F)nc2n1C1CCCC1
inhibition at 10 µM, %: 78.9
--
MOL_SMILES: CN(C)C(=O)c1cc2cnc(Nc3ccc(C(=O)NCCCCCCCN=C=S)cc3)nc2n1C1CCCC1
inhibition at 10 µM, %: 107
--
MOL_SMILES: CN(C)C(=O)c1cc2cnc(Nc3ccc(C(=O)NCCCCN=C=S)cc3O)nc2n1C1CCCC1
inhibition at 10 µM, %: 51.8
--
MOL_SMILES: CN(C)C(=O)c1cc2cnc(Nc3ccc(NC(=O)CCCCCCN=C=S)cc3)nc2n1C1CCCC1
inhibition at 10 µM, %: 80.9
--
MOL_SMILES: CN(C)C(=O)c1cc2cnc(Nc3ccc(NC(=O)CCCCN=C=S)cc3)nc2n1C1CCCC1
inhibition at 10 µM, %: 82.5
--
MOL_SMILES: CN(C)C(=O)c1cc2cnc(Nc3ccc(NC(=O)CCCCCCCN=C=S)cc3)nc2n1C1CCCC1
inhibition at 10 µM, %: 98.7

* * *

Some molecules, each annotated with its measured inhibition.
# ASSAYED_SYSTEM: CDK4/Cyclin D3 (Homo sapiens) (UniProt P11802+P30281)
# PROTOCOL_NOTES: Inhibition of recombinant full-length human CDK4/cyclinD3 at 1 uM using Rb fragment as substrate measured after 40 mins in presence of [gamma33P]ATP by scintillation counting method relative to control
# Format: protein-complex assay

MOL_SMILES: CN(C)C(=O)c1cc2cnc(Nc3ccc(NC(=O)CCCCCCCN=C=S)c(F)c3)nc2n1C1CCCC1
UNIT_DESCRIPTOR: %
inhibition: 86
--
MOL_SMILES: CN(C)C(=O)c1cc2cnc(Nc3ccc(C(=O)NCCCCN=C=S)cc3)nc2n1C1CCCC1
UNIT_DESCRIPTOR: %
inhibition: 98
--
MOL_SMILES: CN(C)C(=O)c1cc2cnc(Nc3ccc(C(=O)NCCCCCCN=C=S)cc3)nc2n1C1CCCC1
UNIT_DESCRIPTOR: %
inhibition: 98
--
MOL_SMILES: CN(C)C(=O)c1cc2cnc(Nc3ccc(C(=O)NCCCCCCCN=C=S)cc3O)nc2n1C1CCCC1
UNIT_DESCRIPTOR: %
inhibition: 37
--
MOL_SMILES: CN(C)C(=O)c1cc2cnc(Nc3ccc(C(=O)NCCCCCCCN=C=S)cc3F)nc2n1C1CCCC1
UNIT_DESCRIPTOR: %
inhibition: 67
--
MOL_SMILES: CN(C)C(=O)c1cc2cnc(Nc3ccc(C(=O)NCCCCN=C=S)cc3O)nc2n1C1CCCC1
UNIT_DESCRIPTOR: %
inhibition: 55
--
MOL_SMILES: CN(C)C(=O)c1cc2cnc(Nc3ccc(NC(=O)CCCCCCCN=C=S)cc3C(F)(F)F)nc2n1C1CCCC1
UNIT_DESCRIPTOR: %
inhibition: 63
--
MOL_SMILES: CN(C)C(=O)c1cc2cnc(Nc3ccc(S(=O)(=O)NCCCCCN=C=S)cc3)nc2n1C1CCCC1
UNIT_DESCRIPTOR: %
inhibition: 91
--
MOL_SMILES: CN(C)C(=O)c1cc2cnc(Nc3ccc(C(=O)NCCCCCCN=C=S)cc3F)nc2n1C1CCCC1
UNIT_DESCRIPTOR: %
inhibition: 89

* * *

# ASSAYED_SYSTEM: CDK6/cyclin D3 (Homo sapiens) (UniProt P30281+Q00534)
# PROTOCOL_NOTES: Inhibition of recombinant full-length human CDK6/cyclinD3 at 1 uM using histone H1 as substrate measured after 40 mins in presence of [gamma33P]ATP by scintillation counting method relative to control
# Format: protein-complex assay
PARAMETER: inhibition (%)

MOL_SMILES: CN(C)C(=O)c1cc2cnc(Nc3ccccc3NC(=O)CCCCCCCN=C=S)nc2n1C1CCCC1
QUANTITATIVE_READOUT: 1

MOL_SMILES: CN(C)C(=O)c1cc2cnc(Nc3ccc(C(=O)NCCCN=C=S)cc3F)nc2n1C1CCCC1
QUANTITATIVE_READOUT: 82

MOL_SMILES: CN(C)C(=O)c1cc2cnc(Nc3ccc(N=C=S)cc3)nc2n1C1CCCC1
QUANTITATIVE_READOUT: 72

MOL_SMILES: CN(C)C(=O)c1cc2cnc(Nc3ccc(S(=O)(=O)NCCCCCCN=C=S)cc3)nc2n1C1CCCC1
QUANTITATIVE_READOUT: 81

* * *

# ASSAYED_SYSTEM: CDK6/cyclin D3 (Homo sapiens) (UniProt P30281+Q00534)
# PROTOCOL_NOTES: Inhibition of recombinant full-length human CDK6/cyclinD3 at 500 nM using histone H1 as substrate measured after 40 mins in presence of [gamma33P]ATP by scintillation counting method relative to control
# Type: protein-complex assay
Please note: true (1) applies when inhibition is 50% or greater, and false (0) applies otherwise.

MOL_SMILES: CN(C)C(=O)c1cc2cnc(Nc3ccc(NC(=O)CCCN=C=S)cc3)nc2n1C1CCCC1
CLASS: true (1)
//
MOL_SMILES: CN(C)C(=O)c1cc2cnc(Nc3ccc(C(=O)NCCCCCCN=C=S)cc3)nc2n1C1CCCC1
CLASS: true (1)
//
MOL_SMILES: CN(C)C(=O)c1cc2cnc(Nc3ccc(C(=O)NCCCCN=C=S)cc3)nc2n1C1CCCC1
CLASS: true (1)
//
MOL_SMILES: CN(C)C(=O)c1cc2cnc(Nc3ccc(C(=O)NCCCN=C=S)cc3O)nc2n1C1CCCC1
CLASS: false (0)
//
MOL_SMILES: CN(C)C(=O)c1cc2cnc(Nc3ccc(S(=O)(=O)NCCCCCCCN=C=S)cc3)nc2n1C1CCCC1
CLASS: false (0)
